These measurements were taken from patent US20220356230A1.

Give measured Binding signal (MFI) for each item. Keep answers brief.
- systemTested: SARS-CoV-2 Spike Protein (RBD)(R319-F541).mFc (SARS-CoV-2)
- testSummary: Luminex bead assay, antigen on microspheres, antibody supernatant
- conditionContext: remark: other sources report otherwise
The answer is to be given in MFI; state only the numeric part.

QUERY: Fill in reported Binding signal (MFI) for this entry: mAb10998 (antibody, V domains shown) VH: EVQLVESGGGLVHPGGSLRLSCAASGLTVSSNYMSWVRQAPGKGLEWVSVIYSGGSTYYADSVKGRFTISRHNSKNTLFLQMNSLRAEDTAVYYCARDRPITGTTLDVWGQGTTVTVSS VL: DIQMTQSPSSLFASVGDRVTITCRASQSISSYLNWYQQKPGKAPKLLIYAASSLQSGVPSRFSGSGSGTDFTLTISSLQPEDFAFYYCQQTYSTPPITFGQGTRLEIK
RESULT: 2230

QUERY: Fill in reported Binding signal (MFI) for this entry: mAb11006 (antibody, V domains shown) VH: EVQLVESGGGLVQPGGSLRLSCAASGFIVSRNYMSWVRQAPGKGLEWVSVIYSGGSTFYADSVKGRFTISRHNSKNTLYLQMNSLKAEDTAVYYCARELRGYFDYWGQGTLVTVSS VL: DIQLTQSPSFLSASVGDRVTITCWASQGISSYLAWYQQKPGKAPKLLIYAASTLQSGVPSRFSGSGSGTEFTLTISSLQPEDFATYYCQLLNSYPYTFGQGTKLEIK
RESULT: 2870

QUERY: Fill in reported Binding signal (MFI) for this entry: mAb11004 (antibody, V domains shown) VH: QVQLVESGGGVVQPGRSLRLSCVASGFTFSIYGMDWVRQAPGKGLEWVAVISYDGSNKYYADSVKGRFTISRDNSKNTLYLQMNSLRPEDTAVYYCAKDREAAADAFDIWGQGTMVTVSS VL: DIQMTQSPSSVSASVGDRVTITCRASQGISSWLAWYQQKPGKAPKLLIYAASSLHSGVPSRFSGSGSGTDFTLTISSLQPEDFATYYCQQANSFRLTFGGGTKVEIK
RESULT: 4580

QUERY: Fill in reported Binding signal (MFI) for this entry: mAb11008 (antibody, V domains shown) VH: EVQLVESGGGLVQPGGSLRLSCAASGFTVSSNYMTWVRQAPGKGLEWVSVIYSGGSTFYADSVKGRFTISRHNSENTLYLQMNSLRAEDTAVYYCARDLAAAGTDYWGQGALVTVSS VL: DIQLTQSPSFLSASVGDRVTITCWASQGISSYLAWYQQKPGKAPKLLIYAASTLQSGVPSRFSGSGSGTEFTLTISSLQPDDFATYYCQHLNSYLYTFGQGTKLEIK
RESULT: 4260
